target: T1, recombinant human endotrophin (77 amino acids at the carboxy-terminal of the COL6α3 chain, HEK293-expressed, … (human, UniProt P12111 3101-3177)); assay: ELISA titration on plate-coated recombinant endotrophin, 4-parameter fit
T1 construct: the His-tag was removed by enterokinase, leaving the 77 amino acid endotrophin free of tags; also called ETP; recombinant endotrophin protein
T1 sequence (P12111 3101-3177 limits assumed): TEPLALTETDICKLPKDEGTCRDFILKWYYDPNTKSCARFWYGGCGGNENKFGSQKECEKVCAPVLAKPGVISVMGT
Readout: EC50 (µg/mL)
Just the number please, in µg/mL, no unit attached.

INPUT: What does the record list as EC50 for ETP-mAb4 (antibody, V domains shown, Rabbit monoclonal; also called parental rabbit ETPmAb4) VH: SSRVKESGGDLVKPGASLTLTCKASGFSFSSGYYICWVRQAPGKGLEWIACIYGGNNNPYYANWVNGRFTTSKTSSTTVTLQMTNLTGADTATYFCARKDINIGGAYELWGPGTLVTISS VL: ELVMTQTPASVSEPVGGTVTINCQASQSISSSYLSWYQQKPGQPPKLLIYKASTLASGVPSRFKGSGSGTQFSLTISDLECADAATYYCQYSDWANSYGNAFGGGTEVVVK ?
OUTPUT: 0.054

INPUT: Now give it for ETP-mAb6 (antibody, V domains shown, Rabbit monoclonal) VH: QSVKESEGGLVQPEGSLTLTCTASGFSFSNSDYMCWVRQAPGKGLEWIGWIDLVGNTNSYYASWAKGRFTISKTSSTTVALQMTSLTVADTATYFCARDLGFDTNLWGPGTLVTVSS VL: ELDLTQTPASVSAAVGGTVTINCQASQNINSWLSWYQQKPGQRPKLLIYQASKLPSGVPSRFKGSGSGTQFTLTISDLECADAATYYCQSHDYRTTGSYGNVFGGGTEVEIK too.
OUTPUT: 0.053
